tgt: HuNoV GII.4 VLP (Human calicivirus NLV/DIJON171/96, UniProt Q8QY55)
Construct: full VP1 virus-like particle, self-assembled, from baculovirus (Bac-to-Bac) infected SF-9 cells, sucrose gradient purified; amine-coupled to CM5 chip
experiment.summary: SPR, Biacore T-200, VLP immobilized on CM5 chip
# Kd per entry

{"input.smiles": "C[C@H](CCC(=O)NCCS(=O)(=O)O)[C@H]1CC[C@H]2[C@@H]3[C@H](O)C[C@@H]4C[C@H](O)CC[C@]4(C)[C@H]3CC[C@]12C", "Kd (µM)": 236}
{"input.smiles": "C[C@H](CCC(=O)NCCS(=O)(=O)O)[C@H]1CC[C@H]2[C@@H]3CC[C@@H]4C[C@H](O)CC[C@]4(C)[C@H]3C[C@H](O)[C@]12C", "Kd (µM)": 308}
{"input.smiles": "C[C@H](CCC(=O)NCC(=O)O)[C@H]1CC[C@H]2[C@@H]3CC[C@@H]4C[C@H](O)CC[C@]4(C)[C@H]3C[C@H](O)[C@]12C", "Kd (µM)": 286}

* * *

tgt: HuNoV GII.4 VLP (Human calicivirus NLV/DIJON171/96, UniProt Q8QY55)
Construct: full VP1 virus-like particle, self-assembled, from baculovirus (Bac-to-Bac) infected SF-9 cells, sucrose gradient purified; amine-coupled to CM5 chip
experiment.summary: SPR, Biacore T-200, VLP immobilized on CM5 chip
readout: Kd (µM)

{"input.smiles": "C[C@H](CCC(=O)NCC(=O)O)[C@H]1CC[C@H]2[C@@H]3[C@H](O)C[C@@H]4C[C@H](O)CC[C@]4(C)[C@H]3CC[C@]12C", "value": 123}
{"input.smiles": "C[C@H](CCC(=O)NCCS(=O)(=O)O)[C@H]1CC[C@H]2[C@@H]3CC[C@@H]4C[C@H](O)CC[C@]4(C)[C@H]3CC[C@]12C", "value": 64}
{"input.smiles": "C[C@H](CCC(=O)O)[C@H]1CC[C@H]2[C@@H]3CC[C@@H]4C[C@H](O)CC[C@]4(C)[C@H]3C[C@H](O)[C@]12C", "value": 176}
